assay.protocol: qHTS assay to identify small molecule agonists of the retinoic acid receptor (RAR) signaling pathway (AID 1159553)
assay.conditions: C3RL4 RARE luciferase reporter, agonist, 6 h
Results filed as inconclusive are left out. Active and inactive are the calls of the source. Calls come from the whole dose curve; as a rule, active = well fitted activation curve with a large enough effect in the repeat runs; inconclusive = weak or mixed curves, or effect the other way; inactive = no such curve, though single readings can be large or run the other way.
Labels: class 1 for active, class 0 for inactive

• CC1=C(Br)C(=O)C(Br)=C/C1=C(/c1ccccc1S(=O)(=O)O)c1cc(Br)c(O)c(Br)c1C = class 0
• CC(C)=CC(=O)C=C(C)C = class 0
• CCCCOc1ccc(OCCCN2CCOCC2)cc1 = class 1
• c1cc(N(CC2CO2)CC2CO2)ccc1Cc1ccc(N(CC2CO2)CC2CO2)cc1 (stereo not given) = class 1
• C=CC(C)(CCC=C(C)C)OC(=O)CC(C)C (stereo not given) = class 0
• c1ccc(C[n+]2cccc3ccccc32)cc1 = class 0
• O=C=Nc1ccc(Cl)c(Cl)c1 = class 0
• C=C(C)[C@@H]1CCC2=CCC[C@@H](C)[C@]2(C)C1 = class 0
• O=c1c(O)c(-c2ccc(O)cc2)oc2cc(O)cc(O)c12 = class 1
• O=C1CCCCCCCCCCOCCCCO1 = class 0
• C(=C\c1ccccc1)/c1ccccc1 = class 1
• CCCCCCCC/C=C\CCCCCCCCO = class 0
• CC(C)(C)C(=O)C(=O)O = class 0
• CN1CC(=O)N2[C@H](c3ccc4c(c3)OCO4)c3[nH]c4ccccc4c3C[C@@H]2C1=O = class 0
• CC[N+](CC)(CCNC(=O)C(=O)NCC[N+](CC)(CC)Cc1ccccc1Cl)Cc1ccccc1Cl = class 0
• C[C@@H](O)[C@H]1C(=O)N2C(C(=O)O)=C([C@H]3CCCO3)S[C@H]12 = class 0
• O=C(Nc1cccc2c(=O)cc(-c3nn[nH]n3)oc12)c1ccc(OCCCCc2ccccc2)cc1 = class 0
• O=C1Cc2ccccc2N1c1c(Cl)cccc1Cl = class 0
• O=C1c2ccccc2C(=O)N1CCc1noc(-c2ccc(CN3CCCCCC3)s2)n1 = class 0
• CCOC(=O)C1=C(C)NC(C)=C(C(=O)OC)C1c1cccc(Cl)c1Cl (stereo not given) = class 0
• CC(CC1c2ccccc2CCc2ccccc21)CN(C)C (stereo not given) = class 0
• COc1ccccc1N1CCN(CCCCNC(=O)c2ccc(-c3ccc(C(C)=O)cc3)cc2)CC1 = class 0
• O=C(O)CCC(=O)C(=O)O = class 0
• CCC(C)COC(C)=O (stereo not given) = class 0
• CC(=O)c1cc2ccccc2s1 = class 0

Source: PubChem BioAssay (Tox21)
